# PROCEDURE_SUMMARY: Terminal half life in male Wistar rat blood at 1 mg/kg, iv
# Format: ADME, organism-based
# CONDITIONS_USED: whole blood, read-out: beta t1/2 (converted)
PROPERTY_LABEL: half-life (h)

INSERT INTO measurements (compound, readout_value) VALUES
  ('COc1ccc([C@H](Nc2cc(F)cc3[nH]c(=O)ccc23)[C@](O)(CO)C(F)(F)F)c(Cl)c1F', 2.9);

###

# Test system: PBMC
# PROCEDURE_SUMMARY: Inhibition of LPS-induced TNFalpha release in human PBMC cells
# Format: functional, cell-based
Below, each entry is listed with its recorded IC50.
PROPERTY_LABEL: IC50 (nM)

INSERT INTO measurements (compound, property_label, readout_value) VALUES
  ('COC[C@@](O)([C@@H](Nc1cc(F)cc2[nH]c(=O)ccc12)c1ccc(OC)c(F)c1Cl)C(F)(F)F', 'IC50', 0.92),
  ('C[C@@H]1C[C@H]2[C@@H]3CCC4=CC(=O)C=C[C@]4(C)[C@@]3(F)[C@@H](O)C[C@]2(C)[C@@]1(O)C(=O)CO', 'IC50', 6.4),
  ('C[C@H]1C[C@H]2[C@@H]3CCC4=CC(=O)C=C[C@]4(C)[C@@]3(F)[C@@H](O)C[C@]2(C)[C@@]1(O)C(=O)CCl', 'IC50', 0.23);

###

# PROCEDURE_SUMMARY: Clearance in male Wistar rat blood at 1 mg/kg, iv
# Assay type: ADME, organism-based
# CONDITIONS_USED: whole blood
PROPERTY_LABEL: clearance (mL/min/kg)

INSERT INTO assay_data (compound, unit_abbreviation, readout_value) VALUES
  ('COc1ccc([C@H](Nc2cc(F)cc3[nH]c(=O)ccc23)[C@](O)(CO)C(F)(F)F)c(Cl)c1F', 'mL/min/kg', 100);

###

# PROCEDURE_SUMMARY: Terminal half life in female Beagle dog blood at 1 mg/kg, iv
# Type: ADME, organism-based, Canis lupus familiaris
# CONDITIONS_USED: whole blood, read-out: beta t1/2 (converted)
PROPERTY_LABEL: half-life (h)

INSERT INTO assay_data (compound, property_label, readout_value) VALUES
  ('COC[C@@](O)([C@@H](Nc1cc(F)cc2[nH]c(=O)ccc12)c1ccc(OC)c(F)c1Cl)C(F)(F)F', 'half-life', 1.3);

###

# PROCEDURE_SUMMARY: Clearance in female Beagle dog plasma at 1 mg/kg, iv
# Format: ADME, organism-based, Canis lupus familiaris
PROPERTY_LABEL: clearance (mL/min/kg)

INSERT INTO measurements (compound, readout_value) VALUES
  ('COC[C@@](O)([C@@H](Nc1cc(F)cc2[nH]c(=O)ccc12)c1ccc(OC)c(F)c1Cl)C(F)(F)F', 20);

###

# PROCEDURE_SUMMARY: Lipophilicity, logP of compound
# Type: physicochemical
# CONDITIONS_USED: octanol/water
Catalogue of logP values
PROPERTY_LABEL: logP

INSERT INTO assay_data (compound, property_label, readout_value) VALUES
  ('COc1ccc([C@H](Nc2cccc3nc(C)ccc23)[C@](O)(CSC)C(F)(F)F)c(Cl)c1F', 'logP', 4.5),
  ('COc1ccc([C@H](Nc2cccc3nc(C)ccc23)[C@](O)(CN(C)C)C(F)(F)F)c(Cl)c1F', 'logP', 5.3),
  ('CCOC[C@@](O)([C@@H](Nc1cc(F)cc2[nH]c(=O)ccc12)c1ccc(OC)c(F)c1Cl)C(F)(F)F', 'logP', 3.8),
  ('COc1ccc([C@H](Nc2cc(F)cc3[nH]c(=O)ccc23)[C@](O)(CO)C(F)(F)F)c(Cl)c1F', 'logP', 2.4),
  ('CCSC[C@@](O)([C@@H](Nc1cc(F)cc2[nH]c(=O)ccc12)c1ccc(OC)c(F)c1Cl)C(F)(F)F', 'logP', 4.3),
  ('CCSC[C@@](O)([C@@H](Nc1cccc2nc(C)ccc12)c1ccc(Cl)c(F)c1OC)C(F)(F)F', 'logP', 5.3),
  ('CCSC[C@@](O)([C@@H](Nc1cccc2nc(C)ccc12)c1ccc(C)cc1)C(F)(F)F', 'logP', 4.8),
  ('COc1ccc([C@H](Nc2cc(F)cc3[nH]c(=O)ccc23)[C@](O)(CN(C)C)C(F)(F)F)c(Cl)c1F', 'logP', 4.4),
  ('COc1ccc([C@H](Nc2cccc3nc(C)ccc23)[C@](O)(CC#N)C(F)(F)F)c(Cl)c1F', 'logP', 3.4),
  ('CCSC[C@@](O)([C@@H](Nc1cccc2nc(C)ccc12)c1ccc(OC)c(F)c1)C(F)(F)F', 'logP', 4.1),
  ('CCSC[C@@](O)([C@@H](Nc1cccc2nc(C)ccc12)c1ccc(OC)cc1F)C(F)(F)F', 'logP', 4.4),
  ('COc1ccc([C@H](Nc2cc(F)cc3[nH]c(=O)ccc23)[C@](O)(CSC)C(F)(F)F)c(Cl)c1F', 'logP', 3.9);
